Test system: SW1417 (Colorectal Carcinoma)
ASSAY: combination Emax (second highest fraction inhibited in the dose matrix, 72 h); higher = more inhibition; extreme values may be limits of the assay

[
  {
    "MOLECULE": "Cc1cc2ncnn2cc1Nc1ncc2c(n1)n(C1CCOCC1)c(=O)n2C [AZD7648] + CN(C)CCCOc1ccc(-c2ccc3ncc4c(c3c2)n(C2CCOCC2)c(=O)n4C)cn1 [AZD0156] (first compound max 10 µM, 7x7, partner max 1 µM)",
    "combination Emax": 0.326
  },
  {
    "MOLECULE": "NC1(C(=O)N[C@@H](CCO)c2ccc(Cl)cc2)CCN(c2ncnc3[nH]ccc23)CC1 [Capivasertib] + CC(C)n1c(=O)n(C)c2cnc3cc(F)c(-c4ccc(OCCCN5CCCCC5)nc4)cc3c21 [AZD1390] (first compound max 10 µM, 7x7, partner max 0.3 µM)",
    "combination Emax": 0.276
  },
  {
    "MOLECULE": "CC(=O)c1c(C)c2cnc(Nc3ccc(N4CCNCC4)cn3)nc2n(C2CCCC2)c1=O [Palbociclib] + Cc1c2c(nn1C)CSCc1cc(n(C)n1)CSc1cc(c3ccccc3c1)OCCCc1c(C(=O)O)n(C)c3c-2c(Cl)ccc13 [AZD5991] (first compound max 10 µM, 7x7, partner max 1 µM)",
    "combination Emax": 0.229
  },
  {
    "MOLECULE": "COc1cccc(OCCCN)c1-c1cc(Nc2cnc(C#N)cn2)n[nH]1 [Prexasertib] + CN(C)CCCOc1ccc(-c2ccc3ncc4c(c3c2)n(C2CCOCC2)c(=O)n4C)cn1 [AZD0156] (first compound max 1 µM, 7x7, partner max 1 µM)",
    "combination Emax": 0.619
  },
  {
    "MOLECULE": "COc1nnc2ccc(N3CCC(c4ccc(OCCN5CCN(C)C(=O)[C@H]5C)cc4)CC3)nn12 [AZD5153] + C[C@@H]1COCCN1C2=NC(=NC(=C2)C3(CC3)[S@](=N)(=O)C)C4=C5C=CNC5=NC=C4 [AZD6738] (first compound max 1 µM, 7x7, partner max 10 µM)",
    "combination Emax": 0.662
  },
  {
    "MOLECULE": "C[C@@H](Nc1cc(F)cc(F)c1)c1cc(C(=O)N(C)C)cc2c(=O)cc(N3CCOCC3)oc12 [AZD8186] + C1CN(CCC1(C(=O)N[C@@H](CCO)C2=CC=C(C=C2)Cl)N)C3=NC=NC4=C3C=CN4 [AZD5363] (first compound max 10 µM, 7x7, partner max 10 µM)",
    "combination Emax": 0.372
  },
  {
    "MOLECULE": "COc1cccc(OCCCN)c1-c1cc(Nc2cnc(C#N)cn2)n[nH]1 [Prexasertib] + C=CCn1c(=O)c2cnc(Nc3ccc(N4CCN(C)CC4)cc3)nc2n1-c1cccc(C(C)(C)O)n1 [AZD1775] (first compound max 1 µM, partner max 1 µM)",
    "combination Emax": 0.64
  },
  {
    "MOLECULE": "Cc1c2c(nn1C)CSCc1cc(n(C)n1)CSc1cc(c3ccccc3c1)OCCCc1c(C(=O)O)n(C)c3c-2c(Cl)ccc13 [AZD5991] + C[C@@H]1COCCN1C2=NC(=NC(=C2)C3(CC3)[S@](=N)(=O)C)C4=C5C=CNC5=NC=C4 [AZD6738] (first compound max 1 µM, 7x7, partner max 10 µM)",
    "combination Emax": 0.453
  },
  {
    "MOLECULE": "CCc1c2c(nc3ccc(O)cc13)-c1cc3c(c(=O)n1C2)COC(=O)[C@]3(O)CC [SN-38] + O=C(c1cc(Cc2n[nH]c(=O)c3ccccc23)ccc1F)N1CCN(C(=O)C2CC2)CC1 [Olaparib] (first compound max 0.3 µM, 7x7, partner max 10 µM)",
    "combination Emax": 0.694
  },
  {
    "MOLECULE": "COc1cccc(OCCCN)c1-c1cc(Nc2cnc(C#N)cn2)n[nH]1 [Prexasertib] + Cc1cc2ncnn2cc1Nc1ncc2c(n1)n(C1CCOCC1)c(=O)n2C [AZD7648] (first compound max 1 µM, 7x7, partner max 10 µM)",
    "combination Emax": 0.667
  },
  {
    "MOLECULE": "CN(CCO)CC[C@H](CSc1ccccc1)Nc1ccc(S(=O)(=O)NC(=O)c2ccc(N3CCC([C@@H](O)c4ccccc4-c4ccc(Cl)cc4)CC3)cc2)cc1S(=O)(=O)C(F)(F)F [AZD4320] + C[C@@H](Nc1cc(F)cc(F)c1)c1cc(C(=O)N(C)C)cc2c(=O)cc(N3CCOCC3)oc12 [AZD8186] (first compound max 1 µM, 7x7, partner max 3 µM)",
    "combination Emax": 0.707
  },
  {
    "MOLECULE": "Cc1nc(-c2cn3c(n2)-c2ccc(-c4cnn(C(C)(C)C(N)=O)c4)cc2OCC3)n(C(C)C)n1 [Taselisib] + O=C(Nc1ccc2[nH]nc(-c3ccncc3)c2c1)[C@@H]1CCN(CC(=O)N2CCN(c3ccc(-c4ncccn4)cc3)CC2)C1 [SCH772984] (first compound max 10 µM, 7x7, partner max 5 µM)",
    "combination Emax": 0.756
  },
  {
    "MOLECULE": "Cn1cnc2c(F)c(Nc3ccc(Br)cc3Cl)c(C(=O)NOCCO)cc21 [Selumetinib] + C[C@@H]1COCCN1C2=NC(=NC(=C2)C3(CC3)[S@](=N)(=O)C)C4=C5C=CNC5=NC=C4 [AZD6738] (first compound max 10 µM, 7x7, partner max 10 µM)",
    "combination Emax": 0.583
  },
  {
    "MOLECULE": "O=C(c1cc(Cc2n[nH]c(=O)c3ccccc23)ccc1F)N1CCN(C(=O)C2CC2)CC1 [Olaparib] + Cc1c2c(nn1C)CSCc1cc(n(C)n1)CSc1cc(c3ccccc3c1)OCCCc1c(C(=O)O)n(C)c3c-2c(Cl)ccc13 [AZD5991] (first compound max 10 µM, 7x7, partner max 1 µM)",
    "combination Emax": 0.0852
  }
]

* * *

Test system: TOV-112D (Ovarian Carcinoma);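 also: after 72 h of two-drug dosing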
ASSAY: Bliss excess, mean over the matrix (fraction); higher = more synergy
Recorded Bliss excess values for a group of compounds are listed next.
MEASURED ENDPOINT: Bliss excess

[
  {
    "COMPOUND": "Cc1c2c(nn1C)CSCc1cc(n(C)n1)CSc1cc(c3ccccc3c1)OCCCc1c(C(=O)O)n(C)c3c-2c(Cl)ccc13 [AZD5991] + C[C@@H]1COCCN1C2=NC(=NC(=C2)C3(CC3)[S@](=N)(=O)C)C4=C5C=CNC5=NC=C4 [AZD6738] (first compound max 1 µM, 7x7, partner max 10 µM)",
    "TARGET ENTITY": "TOV-112D (Ovarian Carcinoma)",
    "MEASURED ENDPOINT": "Bliss excess",
    "RECORDED VALUE": 0.0477
  },
  {
    "COMPOUND": "NC1(C(=O)N[C@@H](CCO)c2ccc(Cl)cc2)CCN(c2ncnc3[nH]ccc23)CC1 [Capivasertib] + COc1nnc2ccc(N3CCC(c4ccc(OCCN5CCN(C)C(=O)[C@H]5C)cc4)CC3)nn12 [AZD5153] (first compound max 10 µM, 7x7, partner max 1 µM)",
    "TARGET ENTITY": "TOV-112D (Ovarian Carcinoma)",
    "MEASURED ENDPOINT": "Bliss excess",
    "RECORDED VALUE": 0.0088
  },
  {
    "COMPOUND": "COc1cccc(OCCCN)c1-c1cc(Nc2cnc(C#N)cn2)n[nH]1 [Prexasertib] + Cc1cc2ncnn2cc1Nc1ncc2c(n1)n(C1CCOCC1)c(=O)n2C [AZD7648] (first compound max 1 µM, 7x7, partner max 10 µM)",
    "TARGET ENTITY": "TOV-112D (Ovarian Carcinoma)",
    "MEASURED ENDPOINT": "Bliss excess",
    "RECORDED VALUE": -0.0241
  },
  {
    "COMPOUND": "COc1nnc2ccc(N3CCC(c4ccc(OCCN5CCN(C)C(=O)[C@H]5C)cc4)CC3)nn12 [AZD5153] + Cc1c2c(nn1C)CSCc1cc(n(C)n1)CSc1cc(c3ccccc3c1)OCCCc1c(C(=O)O)n(C)c3c-2c(Cl)ccc13 [AZD5991] (first compound max 1 µM, 7x7, partner max 1 µM)",
    "TARGET ENTITY": "TOV-112D (Ovarian Carcinoma)",
    "MEASURED ENDPOINT": "Bliss excess",
    "RECORDED VALUE": 0.0347
  },
  {
    "COMPOUND": "CCc1c2c(nc3ccc(O)cc13)-c1cc3c(c(=O)n1C2)COC(=O)[C@]3(O)CC [SN-38] + O=C(c1cc(Cc2n[nH]c(=O)c3ccccc23)ccc1F)N1CCN(C(=O)C2CC2)CC1 [Olaparib] (first compound max 0.3 µM, 7x7, partner max 10 µM)",
    "TARGET ENTITY": "TOV-112D (Ovarian Carcinoma)",
    "MEASURED ENDPOINT": "Bliss excess",
    "RECORDED VALUE": 0.0453
  },
  {
    "COMPOUND": "COc1cccc(OCCCN)c1-c1cc(Nc2cnc(C#N)cn2)n[nH]1 [Prexasertib] + CCc1c2c(nc3ccc(O)cc13)-c1cc3c(c(=O)n1C2)COC(=O)[C@]3(O)CC [SN-38] (first compound max 1 µM, 7x7, partner max 0.3 µM)",
    "TARGET ENTITY": "TOV-112D (Ovarian Carcinoma)",
    "MEASURED ENDPOINT": "Bliss excess",
    "RECORDED VALUE": 0.0183
  },
  {
    "COMPOUND": "COc1nnc2ccc(N3CCC(c4ccc(OCCN5CCN(C)C(=O)[C@H]5C)cc4)CC3)nn12 [AZD5153] + CCN(CCO)CCCOc1ccc2c(Nc3cc(CC(=O)Nc4cccc(F)c4)[nH]n3)ncnc2c1 [AZD2811] (first compound max 1 µM, 7x7, partner max 1 µM)",
    "TARGET ENTITY": "TOV-112D (Ovarian Carcinoma)",
    "MEASURED ENDPOINT": "Bliss excess",
    "RECORDED VALUE": -0.0297
  }
]
